pKd reference
target-system: T1, recombinant human Trop-2-his protein (ACCESSION NO.: NP_002344.2, AA 1-274) (human, UniProt P09758 27-274)
T1 construct: range 27-274; also called recombinant human Trop-2 protein; recombinant human Trop-2 extracellular domain; not shown: his tag
T1 sequence (looked up): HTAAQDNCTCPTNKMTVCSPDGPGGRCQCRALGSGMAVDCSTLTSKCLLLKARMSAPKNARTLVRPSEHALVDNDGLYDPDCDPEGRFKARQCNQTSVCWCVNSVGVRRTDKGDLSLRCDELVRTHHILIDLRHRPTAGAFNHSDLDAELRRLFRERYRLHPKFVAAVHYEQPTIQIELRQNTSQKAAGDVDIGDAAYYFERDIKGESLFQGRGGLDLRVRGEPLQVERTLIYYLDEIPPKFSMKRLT
test-method-notes: BLI, antibody on AHC sensor, Trop-2-his 60 nM
// pKd here means minus log10 of the molar concentration (mol/L)

Sample answers from the record:
binder	pKd
h4-3-8 (antibody, human IgG1, kappa, V domains shown) VH: EVQLVQSGPEVKKPGASVKVSCKASGFTFTDYVIGWVRQAPGQGLEWIGEIYLGSGTIYYTEKFKGRVTMTADTSTSTAYMELSSLRSEDTAVYYCARGSIFYFDYWGQGTLVTVSS VL: DIQLTQSPSSLSASVGDRVTITCRASSSVSYMYWYQQKPGKAPKLLIYDTSTLASGVPSRFSGSGSGTDFTLTISSLQPEDFATYYCQQWSSYPYTFGQGTKLEIKR	9.06
Sacituzumab (antibody, human IgG1, kappa, V domains shown, expressed in HEK293; also called control antibody Sacituzumab; Saituzumab) VH: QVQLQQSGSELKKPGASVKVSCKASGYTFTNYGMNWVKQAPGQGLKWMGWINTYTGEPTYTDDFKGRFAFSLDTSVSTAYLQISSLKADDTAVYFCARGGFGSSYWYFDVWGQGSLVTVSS VL: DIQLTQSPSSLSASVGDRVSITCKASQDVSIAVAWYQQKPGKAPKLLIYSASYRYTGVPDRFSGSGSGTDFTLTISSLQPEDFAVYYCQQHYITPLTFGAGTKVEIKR	9.14

Pending binder:
# pKd lookup, item h4-3-7 (antibody, human IgG1, kappa, V domains shown) VH: EVQLVQSGPEVKKPGASVKVSCKASGFTFTDYVIGWVRQAPGQGLEWIGEIYLGSGTIYYTQKFKGRVTMTADTSTSTAYMELSSLRSEDTAVYYCARGSIFPFDYWGQGTLVTVSS VL: DIQLTQSPSSLSASVGDRVTITCRASSSVSYMYWYQQKPGKAPKLLIYDTSTLASGVPSRFSGSGSGTDFTLTISSLQPEDFATYYCQQWSSYPYTFGQGTKLEIKR
9.33
